Target: rat relaxin family peptide receptor 2 (RXFP2) (rat) (UniProt Q5ECL0)
Sequence (Q5ECL0 entry or part of it): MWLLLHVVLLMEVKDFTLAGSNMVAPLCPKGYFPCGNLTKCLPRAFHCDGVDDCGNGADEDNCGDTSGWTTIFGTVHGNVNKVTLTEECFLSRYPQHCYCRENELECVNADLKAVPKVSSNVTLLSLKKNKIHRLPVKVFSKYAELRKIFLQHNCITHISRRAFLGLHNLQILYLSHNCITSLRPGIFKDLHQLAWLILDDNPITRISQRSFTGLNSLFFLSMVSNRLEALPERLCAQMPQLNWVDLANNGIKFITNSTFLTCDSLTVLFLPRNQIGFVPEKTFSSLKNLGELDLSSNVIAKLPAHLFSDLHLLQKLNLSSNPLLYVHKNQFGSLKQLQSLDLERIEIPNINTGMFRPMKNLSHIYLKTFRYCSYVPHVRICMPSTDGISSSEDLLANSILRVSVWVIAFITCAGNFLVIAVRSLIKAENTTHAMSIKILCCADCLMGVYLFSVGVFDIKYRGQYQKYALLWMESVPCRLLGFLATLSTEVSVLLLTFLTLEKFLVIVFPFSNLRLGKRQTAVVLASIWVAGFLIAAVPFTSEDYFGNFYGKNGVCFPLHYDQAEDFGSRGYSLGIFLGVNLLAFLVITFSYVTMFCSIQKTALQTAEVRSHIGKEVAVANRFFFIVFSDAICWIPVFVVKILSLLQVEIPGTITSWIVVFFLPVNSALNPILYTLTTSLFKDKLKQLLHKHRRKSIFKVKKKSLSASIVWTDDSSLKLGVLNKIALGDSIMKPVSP
Endpoint label: IC50, INSL3-stimulated CYP11B1 mRNA in H295R stably expressing rat RXFP2

{"columns": ["Binder", "Observed measurement"],
 "data": [
  ["RXFP2 mAb 3G4 (antibody, V domains shown) VH: QVQLKESGPGLVAPSQSLSITCTVSGFSLTSYGVSWVRQPPGKGLEWLGVIWGDGSTNYHSALISRLSISKDNSKSQVFLKLNSLQTDDTATYYCAKSLGYYAMDYWGQGTSVTVSS VL: DIQMTQSPASLSVSVGETVTITCRASENIYSNLVWYQQKQGKSPQLLVYAATNLAEGVPSRFSGSGSGTQYSLKINSLQSEDFGSYYCQHFWGPPWTFGGGTKLEIK", "0.33 nM"],
  ["RXFP2 mAb 4G6 (antibody, V domains shown) VH: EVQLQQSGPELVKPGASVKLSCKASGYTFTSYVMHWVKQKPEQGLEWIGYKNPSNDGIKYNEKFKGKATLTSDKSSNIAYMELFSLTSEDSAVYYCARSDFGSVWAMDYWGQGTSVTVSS VL: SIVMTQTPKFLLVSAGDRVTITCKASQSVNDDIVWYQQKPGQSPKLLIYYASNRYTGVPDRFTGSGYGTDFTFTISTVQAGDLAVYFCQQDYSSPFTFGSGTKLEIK", "0.33 nM"],
  ["RXFP2 mAb 1G1 (antibody, V domains shown) VH: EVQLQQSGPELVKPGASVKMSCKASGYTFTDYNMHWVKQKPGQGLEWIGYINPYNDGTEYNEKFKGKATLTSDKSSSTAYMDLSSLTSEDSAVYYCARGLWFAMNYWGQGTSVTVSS VL: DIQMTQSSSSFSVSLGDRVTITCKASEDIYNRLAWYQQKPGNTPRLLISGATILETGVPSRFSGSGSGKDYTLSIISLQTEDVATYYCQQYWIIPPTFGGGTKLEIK", "0.27 nM"]
]}
